assay: Stability tests of solutions of compound 4 with equimolar acids in water; format: physicochemical; details: water with equimolar acid, pH 1.28, water, thermodynamic from solid, equimolar Methanesulfonic acid in water

{"Test smiles": "CCOc1cc(NCCNC(=O)/C=C/C(F)(F)F)ccn1", "solubility": "> 200 mg/mL"}

###

experiment: Stability tests of solutions of compound 4 with equimolar acids in water; assay type: physicochemical; conditions: water with equimolar acid, pH 2.14, water, thermodynamic from solid, equimolar Oxalic acid in water

{"Test smiles": "CCOc1cc(NCCNC(=O)/C=C/C(F)(F)F)ccn1", "solubility": "> 200 mg/mL"}

###

experiment: PK studies of formulations, plasma by HPLC-MS/MS; format: in vivo; settings: bovine, plasma, sc, 1.5 mg/kg, pH 4.4, FormO100 (L-tartaric acid, NaOH up to pH 4.4, water), Cattle, 1.5 mg/kg, read-out: AUC

{"Test smiles": "COc1cc(NCCNC(=O)/C=C/C(C)(F)F)ccn1", "AUC (ng·h/mL)": 1680}

The reported numbers originate from patent US20210107874A1.
